- assay.system: T1, NHERF3_4, Q5T2W1
- T1 sequence (Q5T2W1 373-468, limits assumed, looked up): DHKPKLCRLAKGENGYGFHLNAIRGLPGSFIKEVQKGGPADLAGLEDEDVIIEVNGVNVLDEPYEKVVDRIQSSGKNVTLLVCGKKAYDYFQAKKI
- procedure.text: holdup assay
- Set-up: key: below the threshold = too weak to quantify, mostly under pKd 3.1 to 4
- condition.notes: plain residues with an end cap or a label only (N-terminal biotin on a linker: ttds)

| binder | pKd |
| --- | --- |
| DLDEEEDTHL [PODXL, O00592] | below the threshold |
| NPDALPETLV [ARHGAP6, O43182] | below the threshold |
| PFRSRSPSEV [GPR6, P46095] | below the threshold |
| SGGKRKETLV [NET1, Q7Z628] | below the threshold |
